Source of measurements: patent EP4796540A2

test system: p53 Y220C mutant; experiment: HTRF assay: compounds promoting the binding of p53 Y220C mutant with DNA; format: biochemical; details: His-tagged p53 Y220C (94-312), biotin-labeled DNA
property-measured: log10(SC150) (log10 of the value in nM)
In our notation, the value equals log10 of SC150 in nM.

A selection of reference data follows.
# chemical-smiles, log10(SC150)
rows = [
    ("[2H]C([2H])([2H])Oc1nc(C(=O)NS(=O)(=O)C2CC2)ccc1NCC#Cc1cc2c(N[C@@H]3CCN(C)C[C@@H]3F)cccn2c1CC(F)(F)F", -0.46),
    ("[2H]C([2H])([2H])Oc1nc(C(=O)NS(=O)(=O)CC2CC2)ccc1NCC#Cc1cc2c(N[C@@H]3CCN(C)C[C@@H]3F)cccn2c1CC(F)(F)F", 0.04),
    ("[2H]C([2H])([2H])Oc1nc(C(=O)NS(C)(=O)=O)ccc1NCC#Cc1cc2c(N[C@@H]3CCN(C)C[C@@H]3F)cccn2c1CC(F)(F)F", -0.24),
    ("COc1nc(C(=O)NS(=O)(=O)C2CC2)ccc1NCC#Cc1cc2c(N[C@@H]3CCN(C)C[C@@H]3F)cccn2c1CC(F)(F)F", -0.19),
    ("[2H]C([2H])([2H])Oc1nc(C(=O)NS(=O)(=O)CC(F)(F)F)ccc1NCC#Cc1cc2c(N[C@@H]3CCN(C)C[C@@H]3F)cccn2c1CC(F)(F)F", 0.23),
]

Now examine the next entry.
Find log10(SC150) for COc1cc(S(C)(=O)=O)ccc1NCC#Cc1nc2c(N[C@@H]3CCN(C)C[C@@H]3F)cccn2c1CC(F)(F)F on p53 Y220C mutant and write it down.
1.18

----------
experiment: In vivo pharmacokinetic study in rats; settings: rat, plasma; SD rats (male), IV 1 mg/kg; read-out: Clint
property-measured: clearance (mL/min/kg)
Write the value in mL/min/kg as a bare number.

Tell me its clearance given [2H]C([2H])([2H])Oc1nc(C(=O)NS(C)(=O)=O)ccc1NCC#Cc1cc2c(N[C@@H]3CCN(C)C[C@@H]3F)cccn2c1CC(F)(F)F [Cpd-2] as the entry.
3.3

----------
tested on: CYP3A4/5 enzymes; test: Multi-concentration inhibitory activity curve of CYP3A4/5 enzymes, liver microsomes; assay type: in vitro ADME; details: substrate Midazolam; human liver microsomes; 10 min
property-measured: IC50 (µM)
Write the value in µM as a bare number.

Tell me its IC50 given CNC(=O)c1ccc(NCC#Cc2cc3c(N[C@@H]4CCN(C)C[C@@H]4F)cccn3c2CC(F)(F)F)c(OC)c1 as the entry.
3.8
